Answer each item with its documented Activity.
- Tested on: U-251
- TEST_PROTOCOL: Cytotoxicity against human U251 cells assessed as cellular growth at 10 uM
- Type: functional
Hi! Could you send only the number? It should be in %, unit omitted.

The recorded Activity for entry Cc1ccc(C(=O)Nc2c(NC(=O)CCl)ccc3c2C(=O)c2ccccc2C3=O)cc1 equals -44.02

The recorded Activity for entry Cc1ccc(C(=O)Nc2c(NC(=O)CN3CCN(C)CC3)ccc3c2C(=O)c2ccccc2C3=O)cc1 equals 22.38

The recorded Activity for entry Cc1ccc(C(=O)Nc2c(NC(=O)CN3CCCC3)ccc3c2C(=O)c2ccccc2C3=O)cc1 equals 82.17

The recorded Activity for entry O=C(CCl)Nc1ccc2c(c1NC(=O)Cc1ccccc1)C(=O)c1ccccc1C2=O equals 66.17

The recorded Activity for entry Cc1ccc(C(=O)Nc2ccc3c(c2NC(=O)c2ccc(C)cc2)C(=O)c2ccccc2C3=O)cc1 equals 91.73

Origin of measurements: ChEMBL document CHEMBL1926565
